# Kd per record follows
# testTarget: T1, hu-CD74 antigen (R&D SYSTEMS catalog #3590-CD-050) (human, UniProt P04233-2 73-232, limits assumed)
# T1 construct: Bought antigen; also called rhCD74; human CD74
# T1 sequence (looked up): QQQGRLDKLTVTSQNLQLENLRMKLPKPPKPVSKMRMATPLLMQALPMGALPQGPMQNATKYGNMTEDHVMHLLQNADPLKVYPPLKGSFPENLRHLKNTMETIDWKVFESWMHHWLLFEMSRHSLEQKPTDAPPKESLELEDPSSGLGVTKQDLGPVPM
# runDescription: SPR (Biacore T200), IgG captured on anti-human Fc, rhCD74 analyte
State just the number; it will be interpreted in pM.

Look over these answered cases.
| binder | Kd, pM |
| --- | --- |
| HC 1251_A06 (wt)/LC 1337_A09 (g) (antibody, human IgG1, kappa, V domains shown, IgG format) VH: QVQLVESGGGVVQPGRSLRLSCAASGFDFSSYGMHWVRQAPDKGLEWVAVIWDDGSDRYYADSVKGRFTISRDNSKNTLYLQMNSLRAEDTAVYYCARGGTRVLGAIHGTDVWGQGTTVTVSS VL: DIQMTQSPSSVSASVGDRVTITCRASQGIGSWLAWYQQKPGKAPKLLIYAADRLQSGVPSRFSGSGSGTDFTLTISSLQPEDFATYYCQQYHTYPLTFGGGTKVEIKR | 180 |
| HC 1251_B08 (g)/LC 1337_A10 (wt) (antibody, human IgG1, kappa, V domains shown, IgG format) VH: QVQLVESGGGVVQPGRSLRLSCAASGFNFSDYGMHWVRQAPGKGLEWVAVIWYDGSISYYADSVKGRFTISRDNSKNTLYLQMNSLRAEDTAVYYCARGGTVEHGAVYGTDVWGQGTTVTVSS VL: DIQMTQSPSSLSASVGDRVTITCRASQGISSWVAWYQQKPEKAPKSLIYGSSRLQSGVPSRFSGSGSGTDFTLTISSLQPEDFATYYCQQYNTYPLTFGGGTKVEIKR | 385 |
| HC 1251_A06 (g)/LC 1337_A07 (wt) (antibody, human IgG1, kappa, V domains shown, IgG format) VH: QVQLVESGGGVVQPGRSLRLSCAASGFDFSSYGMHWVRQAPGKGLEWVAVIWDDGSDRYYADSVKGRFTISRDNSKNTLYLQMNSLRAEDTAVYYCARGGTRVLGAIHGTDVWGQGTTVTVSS VL: DIQMTQSPSSLSASVGDRVTITCRASQGISSWVAWYQQKPEKAPKSLIYGASRLQSGVPSRFSGSGSGTDFTLTISSLQPEDFATYYCQQYHTYPLTFGGGTKVEIKR | 166 |
| HC 1251_B08 (g)/LC 1337_A09 (g) (antibody, human IgG1, kappa, V domains shown, IgG format) VH: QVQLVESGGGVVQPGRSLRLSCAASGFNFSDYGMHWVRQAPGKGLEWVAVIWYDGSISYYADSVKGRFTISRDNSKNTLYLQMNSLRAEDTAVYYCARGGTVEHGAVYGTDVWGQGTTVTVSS VL: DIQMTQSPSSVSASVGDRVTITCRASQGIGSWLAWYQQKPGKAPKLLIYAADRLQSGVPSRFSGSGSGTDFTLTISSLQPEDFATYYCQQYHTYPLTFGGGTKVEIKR | 252 |

Let us move to another entry and its Kd.
## Input GET /values?readout=Kd&item= HC 1251_A06 (wt)/LC 1337_A07 (wt) (antibody, human IgG1, kappa, V domains shown, IgG format) VH: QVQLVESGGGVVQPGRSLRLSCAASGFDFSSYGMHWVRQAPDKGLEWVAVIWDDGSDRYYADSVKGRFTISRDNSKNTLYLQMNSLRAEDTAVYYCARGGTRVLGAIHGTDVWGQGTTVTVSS VL: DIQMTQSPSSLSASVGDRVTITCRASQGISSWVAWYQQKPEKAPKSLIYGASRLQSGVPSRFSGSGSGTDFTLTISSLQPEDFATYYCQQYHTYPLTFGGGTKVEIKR
## Output 168

FYI, the data here is from patent US20170253656A1.
